# Test system: BSC-1
# testName: Cytotoxicity against African green monkey BSC1 cells after 20 hrs by lactate dehydrogenase assay
# Assay type: cell-based
# conditionDescription: chlorocebus aethiops, bsc-1, 20 h
Lab note: cut-off is 30 µM. Strictly less in CC50 is T. Exactly 30 µM or more is F.

Q: Consider `Cc1ccc2c(Sc3cc(Cl)cc(Cl)c3)c(CCC(=O)O)[nH]c2c1` . Does its CC50 lie strictly below 30 µM?
A: F

Q: Field: below-cutoff. Rule: recorded CC50 strictly less than 30 µM. Subject: `Cc1ccc2c(Sc3cc(Cl)cc(Cl)c3)c(CCC(N)=O)[nH]c2c1`
A: T

Q: # check: CC50 < 30 µM for `Cc1ccc2c(Sc3cc(Cl)cc(Cl)c3)c(C(=O)O)[nH]c2c1`
A: F

Q: Strictly below 30 µM: is that where CC50 of `CCCCCCNC(=O)CCc1[nH]c2cc(C)ccc2c1Sc1cc(Cl)cc(Cl)c1` sits?
A: T

Q: Is CC50 strictly under 30 µM for the entry `Cc1ccc2c(Sc3cc(Cl)cc(Cl)c3)c(CC(N)=O)[nH]c2c1` ?
A: T

###

This section presents compounds with their documented Ratio CC50/IC50 values.
# testName: Selectivity index, ratio of CC50 for African green monkey BSC1 cells to IC50 for Vaccinia virus WR
# Type: functional, BSC-1
Field format: numeric only.

Guide cases for Ratio CC50/IC50, answers given:
{"columns": ["sampleSmiles", "Ratio CC50/IC50"],
 "data": [
  ["Cc1ccc2c(Sc3cc(Cl)cc(Cl)c3)c(CCC(N)=O)[nH]c2c1", 374],
  ["Cc1ccc2c(Sc3cc(Cl)cc(Cl)c3)c(C(=O)O)[nH]c2c1", 11],
  ["Cc1ccc2c(Sc3cc(Cl)cc(Cl)c3)c(CC(N)=O)[nH]c2c1", 570]
]}

// next item, Ratio CC50/IC50 requested
Q: Form field: reported Ratio CC50/IC50 of `Cc1ccc2c(Sc3cc(Cl)cc(Cl)c3)c(CCC(=O)O)[nH]c2c1`
A: 152
